Tested on: SMN2-linked luciferase-reporter gene construct
Experiment: SMN splice reporter assay (SMN2-linked luciferase reporter, Example 10)
Type: cell-based
Conditions: SMN2-linked luciferase reporter, average
EC50 overview

compound: COc1ccc2c(c1)C(=O)N(c1ccc(C)cc1)C2
system_tested: SMN2-linked luciferase-reporter gene construct
EC50 (nM): 60
--
compound: CC(CF)c1ccc(N2Cc3ccc(C4CCCC4)cc3C2=O)cc1 (centres unmarked)
system_tested: SMN2-linked luciferase-reporter gene construct
EC50 (nM): 822
--
compound: CCOCc1ccc2c(c1)C(=O)N(c1ccc(C(C)C(=O)O)cc1)C2 (centres unmarked)
system_tested: SMN2-linked luciferase-reporter gene construct
EC50 (nM): 42
--
compound: Cc1cccc2c1C(=O)N(c1ccc(C(C)C(=O)O)cc1)C2 (centres unmarked)
system_tested: SMN2-linked luciferase-reporter gene construct
EC50 (nM): 288
--
compound: CC(C(=O)O)c1ccc(N2Cc3cccc(Cl)c3C2=O)cc1 (centres unmarked)
system_tested: SMN2-linked luciferase-reporter gene construct
EC50 (nM): 1130

----------
Test system: SMN2-linked luciferase-reporter gene construct
Test: SMN splice reporter assay (SMN2-linked luciferase reporter, Example 10)
Assay type: cell-based
Conditions: SMN2-linked luciferase reporter, average
Form field: EC50 (one value per entry).
reported_property: EC50 (nM)

compound: Cc1cccc2c1CN(c1ccc(C(C)C)cc1)C2=O
units_text: nM
recorded_measurement: 114
//
compound: COc1ccc2c(c1)C(=O)N(c1ccc(C(C)C(=O)O)cc1)C2 (centres unmarked)
units_text: nM
recorded_measurement: 83
//
compound: CCN(CC)c1ccc2c(c1)C(=O)N(c1ccc(C(C)C)cc1)C2
units_text: nM
recorded_measurement: 121
//
compound: CC(C(=O)O)c1ccc(N2Cc3ccc(OC4CCCC4)cc3C2=O)cc1 (centres unmarked)
units_text: nM
recorded_measurement: 81
//
compound: CC(CO)c1ccc(N2Cc3ccccc3C2=O)cc1 (centres unmarked)
units_text: nM
recorded_measurement: 144

----------
Tested on: SMN2-linked luciferase-reporter gene construct
Assay: SMN splice reporter assay (SMN2-linked luciferase reporter, Example 10)
Type: cell-based
Conditions: SMN2-linked luciferase reporter, average
Kindly apply the following: rule met if EC50 is less than 6 µM, rule not met in every other case.

compound: CC(C)(C)OC(=O)C1(c2ccc(N3Cc4ccccc4C3=O)cc2)CC1
category: rule not met
//
compound: CC(C)Cc1ccc2c(c1)C(=O)N(c1ccc(C(C)C)cc1)C2
category: rule met
//
compound: CC(C(=O)OC(C)(C)C)c1ccc(N2Cc3cc(Br)ccc3C2=O)cc1 (stereo not shown)
category: rule not met
//
compound: C/C=C\c1ccc2c(c1)C(=O)N(c1ccc(C(C)C(=O)OC(C)(C)C)cc1)C2 (stereo not shown)
category: rule met
//
compound: CCCc1ccc2c(c1)C(=O)N(c1ccc(C(C)COC)cc1)C2 (stereo not shown)
category: rule met
//
compound: Cc1ccc2c(c1)C(=O)N(c1ccc(C(C)C)cc1)C2
category: rule met
//
compound: COCC(C)c1ccc(N2Cc3cc(OC)c(OC)cc3C2=O)cc1 (stereo not shown)
category: rule met
//
compound: CC(C(=O)O)c1ccc(N2Cc3c(cccc3-c3ccc(Cl)cc3)C2=O)cc1 (stereo not shown)
category: rule not met
//
compound: CC(C(=O)OC(C)(C)C)c1ccc(N2Cc3ccc(Br)cc3C2=O)cc1 (stereo not shown)
category: rule met
//
compound: CC(C(=O)O)c1ccc(N2Cc3ccccc3C2=O)cc1-c1ccccc1 (stereo not shown)
category: rule not met
//
compound: CC(C)COc1ccc2c(c1)C(=O)N(c1ccc(C(C)C(=O)O)cc1)C2 (stereo not shown)
category: rule met
//
compound: CCc1ccc(N2Cc3ccc(OC)cc3C2=O)cc1
category: rule met

----------
EC50 values for the compounds below.
Test system: SMN2-linked luciferase-reporter gene construct
Test: SMN splice reporter assay (SMN2-linked luciferase reporter, Example 10)
Format: cell-based
Conditions: SMN2-linked luciferase reporter, average

compound: CC(C(=O)O)c1ccc(N2Cc3ccc(C#N)cc3C2=O)cc1 (stereo not shown)
units_text: nM
EC50: 2040
//
compound: CCOc1ccc2c(c1)C(=O)N(c1ccc(C(C)C(=O)OC(C)(C)C)cc1)C2 (stereo not shown)
units_text: nM
EC50: 242
//
compound: CC(=O)c1ccc2c(c1)C(=O)N(c1ccc(C(C)C(=O)O)cc1)C2 (stereo not shown)
units_text: nM
EC50: 50
//
compound: O=C1c2ccccc2CN1c1ccc(C2CCCC2)cc1
units_text: nM
EC50: 53

----------
Overview of recorded EC50 for various compounds
Tested on: SMN2-linked luciferase-reporter gene construct
Assay: SMN splice reporter assay (SMN2-linked luciferase reporter, Example 10)
Format: cell-based
Details: SMN2-linked luciferase reporter, average

compound: CC(C)c1ccc(N2Cc3ccc(Cl)cc3C2=O)cc1 [ALB-116246]
units_text: nM
EC50: 31
--
compound: COc1cccc2c1C(=O)N(c1ccc(C(C)C(=O)OC(C)(C)C)cc1)C2 (centres unmarked) [ALB-111955]
units_text: nM
EC50: 396
--
compound: CC(C(=O)O)c1ccc(N2Cc3ccc(N(C)C)cc3C2=O)cc1 (centres unmarked) [ALB-113648]
units_text: nM
EC50: 28
--
compound: CC(C(=O)OC(C)(C)C)c1ccc(N2Cc3ccccc3C2=O)cc1 (centres unmarked) [ALB-111738]
units_text: nM
EC50: 2300
--
compound: Cc1ccc(N2Cc3cc4c(cc3C2=O)OCCO4)cc1 [ALB-116363]
units_text: nM
EC50: 24
